# Target Entity: recombinant human PILRA (human, UniProt Q9UKJ1 20-197)
# Sequence (Q9UKJ1 20-197 limits assumed): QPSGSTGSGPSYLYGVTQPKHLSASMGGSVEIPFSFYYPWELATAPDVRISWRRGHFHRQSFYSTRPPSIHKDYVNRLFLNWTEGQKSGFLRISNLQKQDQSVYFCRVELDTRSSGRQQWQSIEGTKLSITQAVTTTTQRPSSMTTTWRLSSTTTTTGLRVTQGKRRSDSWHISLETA
# Experiment Description: SPR, Carterra LSA, antibody amine-coupled, kinetic fit
Recorded pKd values for a group of binders are listed next.
The meaning of pKd here: minus log10 of the concentration in molar units.

Binder | pKd
X32 (antibody, human IgG4, V domains shown) VH: QVQLVQSGAEVKKPGSSVKVSCKASGYNFLHYDVNWVRQAPGQGLEWMGGIIPIFGTANYAQKFQGRVTITADESTSTAYMELSSLRSEDTAVYYCATAVGAGWFDPWGQGTLVTVSS VL: DIVMTQSPDSLAVSLGERATINCKSSQSVFFDVNNKNYLAWYQQKPGQPPKLLIYWASTRESGVPDRFSGSGSGTDFTLTISSLQAEDVAVYYCQQYYEEPYTFGQGTRLEIK | 10.00
X7 (antibody, human IgG4, V domains shown, conditioned media in the HEK293F assays) VH: QVQLVQSGAEVKKPGSSVKVSCKASGYNFLNYDVNWVRQAPGQGLEWMGGIIPIFGTANYAQKFQGRVTITADESTSTAYMELSSLRSEDTAVYYCATGVGAGWFDPWGQGTLVTVSS VL: DIVMTQSPDSLAVSLGERATINCKSSQSVFFDENNKNYLAWYQQKPGQPPKLLIYWASTRESGVPDRFSGSGSGTDFTLTISSLQAEDVAVYYCQQYFEEPYTFGQGTRLEIK | 8.42

Continue with the next binder.
Which pKd reading was recorded for the binder X11 (antibody, human IgG4, V domains shown, conditioned media in the HEK293F assays) VH: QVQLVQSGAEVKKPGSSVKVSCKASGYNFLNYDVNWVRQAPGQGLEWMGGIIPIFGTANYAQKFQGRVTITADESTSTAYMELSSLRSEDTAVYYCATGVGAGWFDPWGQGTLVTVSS VL: DIVMTQSPDSLAVSLGERATINCKSSQSVYFSENNKNYLAWYQQKPGQPPKLLIYWASTRESGVPDRFSGSGSGTDFTLTISSLQAEDVAVYYCQQYYEEPYTFGQGTRLEIK ?
8.32
